test: Ratio of drug level in brain to plasma in rat at 10 mg/kg, po after 1 hr
assay metric: Kp at 1 h
The answer should be a number; do not append a unit.

Asked: Could you share which Kp at 1 h value was measured for "CCN(CC)C(=O)[C@@]1(c2ccccc2)C[C@H]1CN" ?
Given back: 0.42

----------
experiment: Metabolic stability in rat liver microsomes assessed as systemic clearance; assay type: ADME, Microsome
For each of the compounds below, state its CLhep predicted.
Return type: number; implicit unit mL/min/kg.

Asked: Can you share its CLhep predicted? I mean this compound: "C#CCN(CC#C)C(=O)[C@@]1(c2ccsc2)C[C@H]1CN"
Given back: 42

Asked: // query CLhep predicted value for entry "C#CCN(CC=C)C(=O)[C@@]1(c2ccsc2)C[C@H]1CN"
Given back: 44

Asked: Using the record for "CCN(CC)C(=O)[C@]1(c2ccccc2)C[C@@H]1CN" , report its CLhep predicted.
Given back: 18

Asked: Reported CLhep predicted, compound "NC[C@@H]1C[C@@]1(C(=O)N1Cc2ccccc2C1)c1ccsc1" : ____
Given back: 66

Asked: Which value of CLhep predicted has been reported for "C=CCN(CC)C(=O)[C@@]1(c2ccsc2)C[C@H]1CN" in the records?
Given back: 57

Asked: So what's the measured CLhep predicted for this one? "C=C(F)CN(CCOC)C(=O)[C@@]1(c2ccsc2)C[C@H]1CN"
Given back: 54

Asked: // returns reported CLhep predicted for input "CCN(CC)C(=O)[C@@]1(c2ccccc2)C[C@H]1CN"
Given back: 24

----------
target: Sodium-dependent noradrenaline transporter (Homo sapiens); test: Inhibition of norepinephrine uptake at human NET expressed in HEK293 cells
Sequence (P23975 whole entry): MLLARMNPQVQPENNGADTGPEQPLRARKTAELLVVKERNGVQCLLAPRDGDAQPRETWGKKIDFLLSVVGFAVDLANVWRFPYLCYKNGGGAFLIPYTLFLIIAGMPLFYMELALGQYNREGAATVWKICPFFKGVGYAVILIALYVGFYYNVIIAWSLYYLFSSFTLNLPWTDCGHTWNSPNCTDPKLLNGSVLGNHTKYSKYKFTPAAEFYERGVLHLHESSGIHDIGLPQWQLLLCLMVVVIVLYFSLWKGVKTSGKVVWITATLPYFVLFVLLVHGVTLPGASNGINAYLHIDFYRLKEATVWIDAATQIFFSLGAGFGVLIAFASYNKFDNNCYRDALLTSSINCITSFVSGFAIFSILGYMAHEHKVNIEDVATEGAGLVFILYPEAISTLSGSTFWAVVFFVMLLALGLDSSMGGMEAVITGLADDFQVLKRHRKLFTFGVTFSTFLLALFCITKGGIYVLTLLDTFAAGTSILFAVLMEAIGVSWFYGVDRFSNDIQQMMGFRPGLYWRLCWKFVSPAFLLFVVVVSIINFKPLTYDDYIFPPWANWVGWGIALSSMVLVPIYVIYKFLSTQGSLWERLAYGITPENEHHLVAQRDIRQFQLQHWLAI
assay metric: IC50

Asked: Sample "C=CCN(C)C(=O)[C@@]1(c2ccsc2)C[C@H]1CN" — what was its IC50?
Given back: 100 nM

Asked: Fill in: IC50 of "CCN(CC)C(=O)[C@@]1(c2ccsc2)C[C@H]1CN(C)C" is ___
Given back: > 10000 nM

Asked: Report IC50 for "COCCN(C)C(=O)[C@@]1(c2ccsc2)C[C@H]1CN" please.
Given back: 1100 nM

Asked: Bench note: what IC50 did "C=CCN(C(=O)[C@@]1(c2ccsc2)C[C@H]1CN)C1CC1" show?
Given back: 8.7 nM

Asked: Which IC50 value is on record for "C=CCN(CC=C)C(=O)[C@@]1(c2ccsc2)C[C@H]1CN" ?
Given back: 2.7 nM

Asked: Using the record for "CCN(CC)C(=O)[C@@]1(c2ccc(Cl)s2)C[C@H]1CN" , report its IC50.
Given back: 40 nM

Asked: Which measured IC50 value corresponds to "CCN(CC)C(=O)[C@@]1(c2sc(Cl)c(Cl)c2Cl)C[C@H]1CN" ?
Given back: 270 nM

Asked: For "C=CCN(CCOC)C(=O)[C@@]1(c2ccsc2)C[C@H]1CN" , what is its reported IC50?
Given back: 20 nM

Asked: // returns reported IC50 for input "CCN(CC)C(=O)[C@@]1(c2csc3ccccc23)C[C@H]1CN"
Given back: 170 nM

Asked: Give its IC50 value. Item: "C#CCN(CCOC)C(=O)[C@@]1(c2ccsc2)C[C@H]1CN"
Given back: 64 nM
